# System: HL-60
# assay: NCI tumour cell line growth inhibition, 48 h
Calls of active or inactive are those of the source. Cut-off read from the data, not from the text of the source: active = GI50 up to about 1.1 µM and inactive = higher.
Entries and their GI50 values follow.
measurement-type: GI50

INSERT INTO measurements (molecule, target_or_system, recorded_value) VALUES
  ('c1cc2sc1CSCCSCCSC2', 'HL-60', '> 100 µM (inactive)'),
  ('O=C(C1OC1c1ccc(O)cc1)C12CC3CC(CC(C3)C1)C2 (stereo not given)', 'HL-60', '10.9 µM (inactive)'),
  ('O=C1C(Br)=CC2(C=C1Br)CCNC1=C2C2=NCCc3c[nH]c(c32)C1=O', 'HL-60', '0.0129 µM (active)'),
  ('O=P1(C(O)/C=C/c2ccccc2)N(Cc2ccccc2)[C@H](c2ccccc2)[C@@H](c2ccccc2)N1Cc1ccccc1 (stereo not given in full)', 'HL-60', '6.87 µM (inactive)'),
  ('CC1(C)C(O)C[C@]23CCC[C@](C)(C[C@@H](O)C12)C3 (stereo not given in full)', 'HL-60', '> 100 µM (inactive)'),
  ('COc1cc(C2C3=C(COC3=O)Oc3cc4c(cc32)OCO4)ccc1OC(C)=O (stereo not given)', 'HL-60', '0.188 µM (active)'),
  ('O=C1CSC(c2ccc([N+](=O)[O-])cc2)N1c1ccc(-n2c(-c3ccccc3)nc3ccccc3c2=O)cc1 (stereo not given)', 'HL-60', '> 100 µM (inactive)'),
  ('CC1(c2cccs2)CC(c2cccs2)=C(C#N)C(=C(C#N)C#N)N1 (stereo not given)', 'HL-60', '10.1 µM (inactive)'),
  ('COC(=O)c1c(C(=O)OC)c2ccccn2c1-c1cc(C)cc2c1C(=O)C=CC2=O', 'HL-60', '2.24 µM (inactive)'),
  ('CC1=NN(C(=O)c2ccccc2O)C(=O)/C1=C/c1ccco1', 'HL-60', '1.49 µM (inactive)');

====

# System: MDA-N
# assay: NCI tumour cell line growth inhibition, 48 h
Calls of active or inactive are those of the source. No stated cut-off is given here; in the data, active = GI50 up to about 1.1 µM and inactive = higher.
Possible outcomes: active, inactive

INSERT INTO assay_data (compound, qualitative_label) VALUES
  ('CC(=O)Oc1c(C)c2c(O)c3c1C1=C(OCOC1=C(C)C3=O)/C(C)=C/C(C)(O)C(O)C(C)C(O)C1C(=O)OC(C(C)C1O)C(C)(O)/C=C\C=C(C)C(=O)N2 (centres undefined)', 'inactive'),
  ('O=C1CSC(c2ccc([N+](=O)[O-])cc2)N1c1ccc(-n2c(-c3ccccc3)nc3ccccc3c2=O)cc1 (centres undefined)', 'inactive'),
  ('CCOc1cccc(/C=N/N=C2\C(=O)Nc3c(Cl)cc(Cl)cc32)c1O', 'inactive'),
  ('Oc1ccc(Cn2c(-c3ccc(O)cc3)nc3ccccc32)cc1', 'inactive'),
  ('C/C(=N\NS(=O)(=O)c1ccc(C)cc1)C(CN(C)C)C(c1ccccc1)c1c(O)c2ccccc2oc1=O (centres undefined)', 'inactive'),
  ('COc1cc(C2C3=C(COC3=O)Oc3cc4c(cc32)OCO4)ccc1OC(C)=O (centres undefined)', 'active'),
  ('OC[C@H]1O[C@@H](n2cnc3c(S)ncnc32)[C@H](O)[C@@H]1O [THIOINOSINE]', 'inactive'),
  ('O=C(O)c1cnc(-n2[nH]c3c(c2=O)CCCC3)[nH]c1=O', 'inactive'),
  ('O=C(NCCCNCCCNC(=O)c1cc(-c2ccccc2)nc2ccccc12)c1cc(-c2ccccc2)nc2ccccc12', 'inactive'),
  ('Cc1ccc(S(=O)(=O)N2CCNCCN(S(=O)(=O)c3ccc(C)cc3)CCN(S(=O)(=O)c3ccc(C)cc3)CC2)cc1', 'inactive'),
  ('COc1cc(C(=O)Oc2c(C#N)sc3c2c(=O)n(-c2ccccc2)c(=S)n3-c2ccccc2)cc(OC)c1OC', 'inactive'),
  ('c1ccc(-c2cc(-c3ccccc3)nc(-c3ccncc3)c2)cc1', 'inactive'),
  ('O=C(c1ccccc1)N1C(=S)N(c2ccc([N+](=O)[O-])cc2)C(=N/c2ccccc2)/C1=N\c1ccccc1', 'inactive'),
  ('COC(=O)Nc1nc2cc(NC(=O)c3cccs3)ccc2[nH]1', 'inactive'),
  ('COc1cc(N(CCC#N)CCC#N)ccc1C(=N/NC(=O)c1cc(Br)ccc1O)/N=N/c1ccccc1', 'inactive'),
  ('Cc1nc2ccccc2c(=O)n1NC(=O)c1ccc([N+](=O)[O-])cc1', 'inactive'),
  ('COc1ccc(/N=N/C(=O)NC(CC(C)C)C(=O)NCC(=O)O)cc1 (centres undefined)', 'inactive'),
  ('N#Cc1nnn(C2CCCCC2)c1O', 'inactive'),
  ('O=c1[nH]c2cccc([N+](=O)[O-])c2c(=O)n1-c1ccc(Cl)cc1', 'inactive');
